- assay_comment: Pharmacokinetics of regorafenib in plasma (HPLC–MS/MS) after a single oral 120 mg dose in healthy male subjects
- Assay type: in vivo, human
- assay_context: male, human; regorafenib in plasma, LC–MS/MS; single oral 120 mg solution; N = 4; geometric mean (%CV)
measurement_kind: Cmax (ng/mL)
Express the result in ng/mL but write the number alone.

Req: Read off the recorded Cmax for CNC(=O)c1cc(Oc2ccc(NC(=O)Nc3ccc(Cl)c(C(F)(F)F)c3)c(F)c2)ccn1
Resp: 1580

* * *

- Test system: human feces
- assay_comment: Incubation with human feces under anaerobic conditions
- Format: in vitro ADME
- assay_context: anaerobic conditions, ex vivo
measurement_kind: Stability in feces / toward gut flora

compound: CNC(=O)c1cc(Oc2ccc(NC(=O)N(c3ccc(Cl)c(C(F)(F)F)c3)C3OC(C(=O)O)C(O)C(O)C3O)c(F)c2)ccn1 (stereo not shown) [M-7]
result: not stable

compound: CNC(=O)c1cc(Oc2ccc(NC(=O)N(c3ccc(Cl)c(C(F)(F)F)c3)C3OC(C(=O)O)C(O)C(O)C3O)c(F)c2)cc[n+]1[O-] (stereo not shown) [M-8]
result: not stable

compound: CNC(=O)c1cc(Oc2ccc(NC(=O)Nc3ccc(Cl)c(C(F)(F)F)c3)c(F)c2)cc[n+]1[O-] [M-2]
result: not stable

* * *

- assay_comment: Pharmacokinetics of regorafenib in plasma (HPLC–MS/MS) after a single oral 120 mg dose in healthy male subjects
- Format: in vivo, human
- assay_context: male, human, plasma, oral, 120 mg, regorafenib in plasma; geometric mean (%CV); N = 4; read-out: t 1/2 (converted)
measurement_kind: half-life (h)
Give the value in h but do not write h after it.

Req: Report half-life, nothing else, for this compound: CNC(=O)c1cc(Oc2ccc(NC(=O)Nc3ccc(Cl)c(C(F)(F)F)c3)c(F)c2)ccn1
Resp: 48.6

This collection of values is drawn from paper PMC5754413.
